Reported IC50 on Pancreatic triacylglycerol lipase (Sus scrofa, UniProt P00591) for assorted molecules, compiled from publications.
Sequence (P00591 whole entry): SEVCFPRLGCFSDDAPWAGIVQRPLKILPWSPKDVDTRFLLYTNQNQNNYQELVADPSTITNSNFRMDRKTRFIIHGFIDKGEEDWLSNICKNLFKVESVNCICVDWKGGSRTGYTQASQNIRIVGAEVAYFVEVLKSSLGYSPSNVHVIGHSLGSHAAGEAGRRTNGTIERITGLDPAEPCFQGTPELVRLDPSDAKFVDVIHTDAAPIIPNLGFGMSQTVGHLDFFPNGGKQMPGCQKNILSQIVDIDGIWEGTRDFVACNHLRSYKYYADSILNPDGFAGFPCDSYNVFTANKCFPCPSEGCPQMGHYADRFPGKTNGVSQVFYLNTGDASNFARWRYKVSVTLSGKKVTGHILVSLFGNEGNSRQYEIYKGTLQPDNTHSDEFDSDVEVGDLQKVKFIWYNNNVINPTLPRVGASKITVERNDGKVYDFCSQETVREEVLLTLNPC
Returns: string. Value is met if measured IC50 is below 20 µM, and not met if it is greater than or equal to it.

The following molecules have reported results that may help.
{"molecule": "CC(C)=CCc1c(-c2ccc(O)cc2O)oc2c(CC=C(C)C)c(O)cc(O)c2c1=O", "target_or_system": "Pancreatic triacylglycerol lipase (Sus scrofa, UniProt P00591)", "label": "met"}
{"molecule": "COc1cc([C@H](O)[C@H](C)O)ccc1O (relative stereo)", "target_or_system": "Pancreatic triacylglycerol lipase (Sus scrofa, UniProt P00591)", "label": "met"}
{"molecule": "O=C1/C(=C/c2ccc(F)cc2)Cc2ccc(O)cc21", "target_or_system": "Pancreatic triacylglycerol lipase (Sus scrofa, UniProt P00591)", "label": "not met"}
{"molecule": "C[C@]12CC[C@@H]3c4cc(-c5ccc(Cl)cc5)c(O)c(-c5ccc(Cl)cc5)c4CC[C@H]3[C@@H]1CCC2=O", "target_or_system": "Pancreatic triacylglycerol lipase (Sus scrofa, UniProt P00591)", "label": "met"}

Is IC50 strictly under 20 µM for the entry Cc1ccc(-c2nn(-c3ccccc3)cc2/C=C2\SC(=O)NC2=O)cc1 ?
met

Try this molecule next: O=C1NC(=O)/C(=C/c2cn(-c3ccccc3)nc2-c2ccc(Cl)cc2)S1
met

Try this molecule next: CC1(C)C=Cc2c(cc3occc(=O)c3c2O)O1
not met

Try this molecule next: C=C(CCC=C(C)C)C(O)Cc1c(O)c(CC2=C(O)C(C)(C)C(O)=C(C(=O)C(C)CC)C2=O)c(O)c(C(=O)C(C)C)c1O (centres undefined)
met

Try this molecule next: COc1cccc(NC(=O)C(=O)c2ccc3c(c2)c2ccccc2n3Cc2ccc(Cl)cc2)c1
not met
